# Test system: Ames Salmonella TA100
# conditions: Table III; Ames TA100 strain

molecule: CCCS(=O)(=O)c1nc([N+](=O)[O-])cn1C
Mutagenicity (percent ronidazole): 0.1
--
molecule: Cn1c([N+](=O)[O-])cnc1COC(N)=O [Ronidazole, reference compound]
Mutagenicity (percent ronidazole): 100.0
--
molecule: CCS(=O)(=O)c1nc([N+](=O)[O-])cn1C
Mutagenicity (percent ronidazole): 0.1
--
molecule: CC(C)S(=O)(=O)c1nc([N+](=O)[O-])cn1C
Mutagenicity (percent ronidazole): 0.1
--
molecule: Cn1cc([N+](=O)[O-])nc1S(=O)(=O)c1ccccc1
Mutagenicity (percent ronidazole): 0.1

###

# Test system: T. foetus
# protocol-description: Trichomonal activity in vivo: survival of mice infected i.p. with T. foetus
# conditions: Tritrichomonas foetus, po, 336 h, Table I, gavage once per day for four consecutive days, survival over two weeks, read-out: ED50 (T. foetus) in vivo
observed-property: ED50

compound: Cn1cc([N+](=O)[O-])nc1S(=O)(=O)c1ccccc1 [Compound 5]
target-entity: T. foetus
observed-property: ED50
result: 10 to 25 mg/kg
//
compound: CC(C)S(=O)(=O)c1nc([N+](=O)[O-])cn1C [Compound 4]
target-entity: T. foetus
observed-property: ED50
result: 5 to 10 mg/kg
//
compound: Cc1ncc([N+](=O)[O-])n1CCO [Flagyl, reference compound]
target-entity: T. foetus
observed-property: ED50
result: 25 to 50 mg/kg
//
compound: CCn1cc([N+](=O)[O-])nc1S(C)(=O)=O [Compound 1]
target-entity: T. foetus
observed-property: ED50
result: 10 to 50 mg/kg
//
compound: CC(C)Sc1nc([N+](=O)[O-])cn1C [Compound 10]
target-entity: T. foetus
observed-property: ED50
result: 10 to 50 mg/kg
//
compound: Cn1cc([N+](=O)[O-])nc1[S+](C)[O-] (centres unmarked) [Compound 6]
target-entity: T. foetus
observed-property: ED50
result: 2 to 5 mg/kg
//
compound: CCCS(=O)(=O)c1nc([N+](=O)[O-])cn1C [Compound 3]
target-entity: T. foetus
observed-property: ED50
result: 5 to 10 mg/kg
//
compound: CSc1nc([N+](=O)[O-])cn1C [Compound 7, 1-methyl-2-methylthio-4-nitroimidazole]
target-entity: T. foetus
observed-property: ED50
result: 5 to 10 mg/kg
//
compound: CCS(=O)(=O)c1nc([N+](=O)[O-])cn1C [Compound 2]
target-entity: T. foetus
observed-property: ED50
result: 2 to 5 mg/kg
//
compound: CCCSc1nc([N+](=O)[O-])cn1C [Compound 9, 1-methyl-2-propylthio-4-nitroimidazole]
target-entity: T. foetus
observed-property: ED50
result: 5 mg/kg
//
compound: CCSc1nc([N+](=O)[O-])cn1C [Compound 8, 1-methyl-2-ethylthio-4-nitroimidazole]
target-entity: T. foetus
observed-property: ED50
result: 2 mg/kg
